Molecular target: T1, cyno GITR-Fc (cynomolgus monkey)
T1 construct: also called cGITR; cynomolgus GITR
T1 chain: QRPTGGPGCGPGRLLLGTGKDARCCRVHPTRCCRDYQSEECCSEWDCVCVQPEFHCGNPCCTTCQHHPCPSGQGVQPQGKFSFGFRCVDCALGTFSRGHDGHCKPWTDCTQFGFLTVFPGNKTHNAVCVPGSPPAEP
Assay: BLI Octet RED384, ABP on AHQ sensor, 100 nM antigen, single concentration;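 also: association and dissociation each tracked over 180 s, with dissociation run in antigen-free buffer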
Reported pKd values follow for various binders
pKd here is simply -log10 of the concentration when that concentration is written in mol/L.

Take a look at these entries with their results.
Query: Which pKd is listed for ABP15 (antibody, human IgG1, kappa, N297A, V domains shown) VH: QVQLVQSGAEVKKPGSSVKVSCKASGGTFSSYAISWVRQAPGQRLEWMGGIIPISGFTNYAQKFQGRVTITADESTSTAYMELSSLRSEDTAVYYCAREGGHYYSGWPYWGQGTLVTVSS VL: EIVLTQSPATLSLSPGERATLSCRASQSVSSYLAWYQQKPGQAPRLLIYDASNRATGIPARFSGSGSGTDFTLTISSLEPEDFAVYYCQQRLVFPPTFGGGTKVEIKR ?
Reply: 8.28

Query: # input binder: ABP41 (antibody, human IgG1, kappa, N297A, V domains shown, IgG1 N297A, bivalent; also called non-TM ABP corresponding to ABP8) VH: QVQLQESGPGLVKPSETLSLTCAVSGYSISSEYMWGWIRQPPGKGLEWIGLIYHSGKTYYNPSLKSRVTISVDTSKNQFSLKLSSVTAADTAVYYCAREADRGYGDYGGHHAFDIWGQGTMVTVSS VL: DIQMTQSPSSLSASVGDRVTITCGASQSISTYLNWYQQKPGKAPKLLIYSASSLESGVPSRFSGSGSGTDFTLTISSLQPEDFATYYCQQEYNTPPSFGGGTKVEIKR ; wanted: its pKd
Reply: 8.16

***
Query: Could you share which pKd value was measured for ABP14 (antibody, human IgG1, kappa, N297A, V domains shown) VH: QVQLVQSGAEVKKPGSSVKVSCKASGGTFSSYAISWVRQAPGQGLEWMGGIIPISGFTNYAQKFQGRVTITADESTSTAYMELSSLRSEDTAVYYCAREGGHYYSGWPYWGQGTLVTVSS VL: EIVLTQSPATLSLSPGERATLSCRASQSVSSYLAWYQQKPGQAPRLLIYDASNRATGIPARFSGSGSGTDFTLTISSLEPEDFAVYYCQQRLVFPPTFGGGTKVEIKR ?
Reply: 8.23
